Values were extracted from patent US9108960B2.

# Test system: M. tuberculosis H37Rv
The label Condition met is reserved for MIC strictly under 2 µg/mL; Condition not met covers values equal to or above it.

Answered cases to consult:
compound="CO[C@H]1/C=C/O[C@@]2(C)Oc3c(C)c(O)c4c(O)c(c(/C=N/N5CCN(C)CC5)c(O)c4c3C2=O)NC(=O)/C(C)=C\\C=C\\[C@H](C)[C@H](O)[C@@H](C)[C@@H](O)[C@@H](C)[C@H](OC(C)=O)[C@@H]1C [Rifampicin, reference compound]" category_label="Condition met"
compound="NNC(=O)c1ccncc1 [Isoniazid, reference compound]" category_label="Condition not met"
compound=CCn1nc(C2CCN(c3ccc(NC(=O)c4ccc([N+](=O)[O-])o4)cc3)CC2)oc1=O category_label="Condition met"

Now, please, on to the next compound.
Ask | Is MIC of Cn1nc(C2CCN(c3ccc(NCc4ccc([N+](=O)[O-])o4)cc3F)CC2)oc1=O [Compound 10f] strictly below 2 µg/mL?
Reply | Condition not met

====

Target or system M. tuberculosis XDR-1; recorded quantity MIC.
// note: answer is a bare numeric in µg/mL

Before answering, review these 10 worked examples.
compound=O=c1[nH]nc(C2CCN(c3ccc(/N=C/c4ccc([N+](=O)[O-])o4)cc3)CC2)o1 measured_metric=MIC value_measured=4
compound=CCn1nc(C2CCN(c3ccc(NC(=O)c4ccc([N+](=O)[O-])o4)cc3F)CC2)oc1=O measured_metric=MIC value_measured=2
compound="Cn1nc(C2CCN(c3ccc(NCc4ccc([N+](=O)[O-])o4)cc3)CC2)oc1=O [Compound 10b]" measured_metric=MIC value_measured=8
compound=Cn1nc(C2CCN(c3ccc(NC(=O)c4ccc([N+](=O)[O-])o4)cc3F)CC2)oc1=O measured_metric=MIC value_measured=4
compound=Cn1nc(C2CCN(c3ccc(/N=C/c4ccc([N+](=O)[O-])o4)cc3)CC2)oc1=O measured_metric=MIC value_measured=8
compound=O=c1[nH]nc(C2CCN(c3ccc(/N=C/c4ccc([N+](=O)[O-])o4)cc3F)CC2)o1 measured_metric=MIC value_measured=8
compound="O=c1[nH]nc(C2CCN(c3ccc(NCc4ccc([N+](=O)[O-])o4)cc3F)CC2)o1 [Compound 10e]" measured_metric=MIC value_measured=8
compound=O=C(Nc1ccc(N2CCC(c3n[nH]c(=O)o3)CC2)c(F)c1)c1ccc([N+](=O)[O-])o1 measured_metric=MIC value_measured=8
compound=Cn1nc(C2CCN(c3ccc(/N=C/c4ccc([N+](=O)[O-])o4)cc3F)CC2)oc1=O measured_metric=MIC value_measured=8
compound="CCn1nc(C2CCN(c3ccc(NCc4ccc([N+](=O)[O-])o4)cc3)CC2)oc1=O [Compound 10c]" measured_metric=MIC value_measured=4

Ask | Look at this compound and give its reported MIC. CO[C@H]1/C=C/O[C@@]2(C)Oc3c(C)c(O)c4c(O)c(c(/C=N/N5CCN(C)CC5)c(O)c4c3C2=O)NC(=O)/C(C)=C\C=C\[C@H](C)[C@H](O)[C@@H](C)[C@@H](O)[C@@H](C)[C@H](OC(C)=O)[C@@H]1C [Rifampicin, reference compound]
Reply | 2

Ask | // MIC lookup, key: O=c1oc(C2CCN(c3ccc(NCc4ccc([N+](=O)[O-])o4)cc3)CC2)nn1Cc1ccccc1 [Compound 10d]
Reply | 8

Ask | So what does the record say about MIC for `CCn1nc(C2CCN(c3ccc(/N=C/c4ccc([N+](=O)[O-])o4)cc3)CC2)oc1=O` ?
Reply | 4

Ask | What does the record list as MIC for CCn1nc(C2CCN(c3ccc(NCc4ccc([N+](=O)[O-])o4)cc3F)CC2)oc1=O [Compound 10g] ?
Reply | 4

Ask | Could you share which MIC value was measured for `O=C(Nc1ccc(N2CCC(c3n[nH]c(=O)o3)CC2)cc1)c1ccc([N+](=O)[O-])o1` ?
Reply | 4

====

MIC overview
# Tested on: M. tuberculosis XDR-1
Use µg/mL as the unit, but write only the number.

Answered cases to consult:
molecule="CCn1nc(C2CCN(c3ccc(NC(=O)c4ccc([N+](=O)[O-])o4)cc3)CC2)oc1=O [Compound 8c]" value_measured=4
molecule="O=c1oc(C2CCN(c3ccc(NCc4ccc([N+](=O)[O-])o4)cc3F)CC2)nn1Cc1ccccc1 [Compound 10h]" value_measured=8

Pending molecule:
Ask | Reported MIC for M. tuberculosis XDR-1, given O=c1[nH]nc(C2CCN(c3ccc(NCc4ccc([N+](=O)[O-])o4)cc3)CC2)o1 [Compound 10a] ?
Reply | 4

====

Recorded measurements of MIC, one per entry
# Test system: M. tuberculosis H37Rv
Give the value in µg/mL but do not write µg/mL after it.

Ask | Give the measured MIC of O=c1oc(C2CCN(c3ccc(NCc4ccc([N+](=O)[O-])o4)cc3F)CC2)nn1Cc1ccccc1 [Compound 10h] .
Reply | 2

Ask | Given the entry `CCn1nc(C2CCN(c3ccc(/N=C/c4ccc([N+](=O)[O-])o4)cc3)CC2)oc1=O` , report its measured MIC.
Reply | 1

Ask | Which MIC reading was recorded for the molecule `Cn1nc(C2CCN(c3ccc(/N=C/c4ccc([N+](=O)[O-])o4)cc3)CC2)oc1=O` ?
Reply | 2

Ask | For the molecule `O=C(Nc1ccc(N2CCC(c3n[nH]c(=O)o3)CC2)cc1)c1ccc([N+](=O)[O-])o1` , what MIC is on record?
Reply | 1

Ask | Entry `Cn1nc(C2CCN(c3ccc(/N=C/c4ccc([N+](=O)[O-])o4)cc3F)CC2)oc1=O` has what MIC?
Reply | 2

Ask | Recorded MIC of `O=c1oc(C2CCN(c3ccc(/N=C/c4ccc([N+](=O)[O-])o4)cc3F)CC2)nn1Cc1ccccc1` , please.
Reply | 2

Ask | Recorded MIC of `O=C(Nc1ccc(N2CCC(c3n[nH]c(=O)o3)CC2)c(F)c1)c1ccc([N+](=O)[O-])o1` , please.
Reply | 2

Ask | I'd like to know its MIC. The molecule in question is `O=c1[nH]nc(C2CCN(c3ccc(/N=C/c4ccc([N+](=O)[O-])o4)cc3)CC2)o1`
Reply | 2

Ask | Would you mind telling me what MIC value was observed for O=c1[nH]nc(C2CCN(c3ccc(NCc4ccc([N+](=O)[O-])o4)cc3)CC2)o1 [Compound 10a] ?
Reply | 1

Ask | Fill blank: measured MIC of the molecule Cn1nc(C2CCN(c3ccc(NCc4ccc([N+](=O)[O-])o4)cc3)CC2)oc1=O [Compound 10b] is ____.
Reply | 2

Ask | Requested field: MIC. Item: `Cn1nc(C2CCN(c3ccc(NC(=O)c4ccc([N+](=O)[O-])o4)cc3F)CC2)oc1=O`
Reply | 1

Ask | Recorded MIC for CCn1nc(C2CCN(c3ccc(NCc4ccc([N+](=O)[O-])o4)cc3)CC2)oc1=O [Compound 10c] , please?
Reply | 1

====

Recorded below: MIC, system M. tuberculosis H37Rv.
Give a bare numeral; the unit µg/mL is implied.

compound="O=c1[nH]nc(C2CCN(c3ccc(/N=C/c4ccc([N+](=O)[O-])o4)cc3F)CC2)o1 [Compound 9e]" value_measured=2
compound="CCn1nc(C2CCN(c3ccc(NCc4ccc([N+](=O)[O-])o4)cc3F)CC2)oc1=O [Compound 10g]" value_measured=2

Ask | Notebook entry, M. tuberculosis H37Rv assay: MIC of O=c1oc(C2CCN(c3ccc(NCc4ccc([N+](=O)[O-])o4)cc3)CC2)nn1Cc1ccccc1 [Compound 10d] = ?
Reply | 2

====

Endpoint: MIC. System: M. tuberculosis H37Rv. Items follow.
Don't forget the unit after the number, please.

See these solved cases before continuing.
compound=CCn1nc(C2CCN(c3ccc(/N=C/c4ccc([N+](=O)[O-])o4)cc3F)CC2)oc1=O value_measured="1 µg/mL"
compound=CCn1nc(C2CCN(c3ccc(NC(=O)c4ccc([N+](=O)[O-])o4)cc3F)CC2)oc1=O value_measured="0.5 µg/mL"
compound="O=c1[nH]nc(C2CCN(c3ccc(NCc4ccc([N+](=O)[O-])o4)cc3F)CC2)o1 [Compound 10e]" value_measured="2 µg/mL"

// below: MIC requested for another compound
Ask | Return MIC measured with M. tuberculosis H37Rv given this compound: `O=c1oc(C2CCN(c3ccc(/N=C/c4ccc([N+](=O)[O-])o4)cc3)CC2)nn1Cc1ccccc1`
Reply | 2 µg/mL
